system-name: Luciferin 4-monooxygenase (Photinus pyralis) (UniProt P08659)
Sequence (P08659 whole entry, looked up): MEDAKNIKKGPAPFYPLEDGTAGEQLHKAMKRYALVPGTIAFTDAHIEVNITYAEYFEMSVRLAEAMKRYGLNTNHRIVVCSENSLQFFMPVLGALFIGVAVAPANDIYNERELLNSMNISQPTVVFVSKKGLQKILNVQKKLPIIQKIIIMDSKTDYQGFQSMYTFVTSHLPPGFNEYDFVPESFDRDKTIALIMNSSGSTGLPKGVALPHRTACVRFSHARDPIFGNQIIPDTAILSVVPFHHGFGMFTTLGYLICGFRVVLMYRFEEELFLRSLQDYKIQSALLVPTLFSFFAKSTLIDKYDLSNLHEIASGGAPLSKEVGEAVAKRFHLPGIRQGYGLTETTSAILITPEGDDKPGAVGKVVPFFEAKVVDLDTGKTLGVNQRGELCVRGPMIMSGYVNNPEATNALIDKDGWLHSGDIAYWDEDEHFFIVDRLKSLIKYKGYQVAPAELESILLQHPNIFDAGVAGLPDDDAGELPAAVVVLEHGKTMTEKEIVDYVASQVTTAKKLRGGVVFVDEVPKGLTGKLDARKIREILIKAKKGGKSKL
assay-comment: qHTS profiling assay for firefly luciferase inhibitor/activator using purifed enzyme and Km concentrations of substrates (counterscreen for miR-21 project); note: nearly all actives have a fitted effect of over 55% in size
condition-details: purified FLuc, luminescence inhibition; series mostly up to 57.5 µM
In all, about 360,000 compounds went through this assay and about 25,000 (6.9%) were called active. About 9% were inconclusive and are not listed. Calls come from the whole dose curve; as a rule, active = well fitted inhibition curve with a large enough effect; inconclusive = small, poorly fitted or top-dose-only effect; inactive = flat fitted curve, though single readings scatter. This is one part of a sample in which actives are shown more often than they occur.
Give your call using only these classes: active, inactive

>  <compound>
Nc1ccccc1SC(C[N+](=O)[O-])c1ccccc1 (centres undefined)

>  <system-name>
Luciferin 4-monooxygenase (Photinus pyralis) (UniProt P08659)

>  <label-value>
active

$$$$
>  <compound>
O=C(O)c1ccccc1CSc1nc2ccccc2s1

>  <system-name>
Luciferin 4-monooxygenase (Photinus pyralis) (UniProt P08659)

>  <label-value>
active

$$$$
>  <compound>
Cc1cc(C)c(C#N)c(SCc2ccccc2C(=O)O)n1

>  <system-name>
Luciferin 4-monooxygenase (Photinus pyralis) (UniProt P08659)

>  <label-value>
inactive

$$$$

Task: Could you kindly confirm the outcome this assay logged for `CCn1c(COc2cccc(OC)c2)nnc1SCC(=O)N1CCOCC1` ?
Result: inactive

Task: Could you kindly confirm the outcome this assay logged for `Cc1[nH]n(C)c(=O)c1N=Nc1ccc(S(C)(=O)=O)cc1` ?
Result: inactive

Task: Could you kindly confirm the outcome this assay logged for COc1ccc(NC(=S)NC2CCS(=O)(=O)C2)cc1 (centres undefined) ?
Result: inactive

Task: Could you kindly confirm the outcome this assay logged for `CCCOC(=O)c1ccc(N2C(=O)c3ccccc3C2=O)cc1` ?
Result: inactive

Task: Could you kindly confirm the outcome this assay logged for `O=C(Nc1ccccc1)N1CCN(C2c3ccccc3-c3ccccc32)CC1` ?
Result: inactive

Task: Could you kindly confirm the outcome this assay logged for `CCCCCc1ccc(-c2ccc(OCC)cc2)nc1` ?
Result: active

Task: Could you kindly confirm the outcome this assay logged for `CN(C)/C=C1\C=C(c2ccccc2)OC1=O` ?
Result: inactive

Task: Could you kindly confirm the outcome this assay logged for `CCN(CC)CCCSc1nc2ccccc2s1` ?
Result: inactive

// data source = PubChem BioAssay AID588342
